- system-name: FLT3-ITD-F691L-D835Y Ba/F3 cells (Homo sapiens, UniProt P36888, F691L/D835Y, cells depend on it, form not given)
- method-summary: Growth inhibitory activity against Ba/F3 cell line
- Assay type: cell-based
- experimental-conditions: Ba/F3 expressing FLT3-ITD-F691L-D835Y; 72 hours; cell titer glo; read-out: IC50 (uM) FLT3-ITD-F691L-D835Y
Counter-ions that a name gives are not always drawn.
reported-property: GI50 (µM)

[[record]]
compound = "CS(=O)(=O)N1CCC(n2cc(C#Cc3cc(NC(N)=O)c(C(=O)N[C@H]4CCCNC4)s3)cn2)CC1 [Example 23]"
unit_of_measurement = "µM"
limit_qualifier = "="
value_observed = 0.02

[[record]]
compound = "NC(=O)Nc1cc(C#Cc2cnn(C3CCOCC3)c2)sc1C(=O)N[C@H]1CCCCNC1 [Example 46, trifluoroacetate]"
unit_of_measurement = "µM"
limit_qualifier = "="
value_observed = 0.003

[[record]]
compound = "N#Cc1cccc(C#Cc2cc(NC(N)=O)c(C(=O)N[C@H]3CCCNC3)s2)c1 [Example 6]"
unit_of_measurement = "µM"
limit_qualifier = "<"
value_observed = 0.004

[[record]]
compound = "NC(=O)Nc1cc(C#Cc2ccsc2)sc1C(=O)N[C@H]1CCCCNC1 [Example 48, trifluoroacetate]"
unit_of_measurement = "µM"
limit_qualifier = "="
value_observed = 0.004


###

- system-name: FLT3-D835Y Ba/F3 cells (Homo sapiens, UniProt P36888, D835Y, cells depend on it)
- Sequence (P36888 1-993 D835Y): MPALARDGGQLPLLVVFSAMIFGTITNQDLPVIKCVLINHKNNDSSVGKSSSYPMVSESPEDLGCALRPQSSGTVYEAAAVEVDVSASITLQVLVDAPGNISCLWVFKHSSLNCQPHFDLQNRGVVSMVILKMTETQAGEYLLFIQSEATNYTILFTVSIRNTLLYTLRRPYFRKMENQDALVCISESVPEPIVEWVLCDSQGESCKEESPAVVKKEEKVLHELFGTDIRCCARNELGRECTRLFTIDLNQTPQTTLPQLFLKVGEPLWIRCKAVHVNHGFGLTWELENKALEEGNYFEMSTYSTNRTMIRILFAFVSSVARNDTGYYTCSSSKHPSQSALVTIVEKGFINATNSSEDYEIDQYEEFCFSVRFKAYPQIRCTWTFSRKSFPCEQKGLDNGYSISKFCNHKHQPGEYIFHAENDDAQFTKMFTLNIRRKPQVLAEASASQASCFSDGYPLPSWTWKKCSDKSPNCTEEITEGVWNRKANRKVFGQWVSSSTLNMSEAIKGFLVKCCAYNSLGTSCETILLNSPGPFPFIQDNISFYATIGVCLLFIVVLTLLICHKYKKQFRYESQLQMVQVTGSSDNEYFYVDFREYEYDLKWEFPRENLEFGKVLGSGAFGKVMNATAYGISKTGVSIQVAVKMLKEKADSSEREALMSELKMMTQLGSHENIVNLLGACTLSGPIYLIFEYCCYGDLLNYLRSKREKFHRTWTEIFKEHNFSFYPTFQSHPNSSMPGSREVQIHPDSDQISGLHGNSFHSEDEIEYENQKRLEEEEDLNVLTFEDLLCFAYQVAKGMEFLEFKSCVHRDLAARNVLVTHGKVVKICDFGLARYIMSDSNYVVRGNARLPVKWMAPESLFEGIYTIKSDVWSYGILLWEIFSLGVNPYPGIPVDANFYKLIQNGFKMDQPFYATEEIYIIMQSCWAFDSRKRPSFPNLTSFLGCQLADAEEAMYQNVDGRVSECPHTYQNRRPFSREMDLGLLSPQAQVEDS
- method-summary: Growth inhibitory activity against Ba/F3 cell line
- Type: cell-based
- experimental-conditions: Ba/F3 expressing FLT3-D835Y; 72 hours; cell titer glo; read-out: IC50 (uM) FLT3-D835Y
Counter-ions that a name gives are not always drawn.
reported-property: GI50

[[record]]
compound = "CC(C)n1cc(C#Cc2cc(NC(N)=O)c(C(=O)N[C@H]3CCCCNC3)s2)cn1 [Example 44, trifluoroacetate]"
value_observed = "0.216 µM"

[[record]]
compound = "N#Cc1ccc(C#Cc2cc(NC(N)=O)c(C(=O)N[C@H]3CCCNC3)s2)cc1"
value_observed = "0.003 µM"

[[record]]
compound = "NC(=O)Nc1cc(C#Cc2n[nH]c3ccccc23)sc1C(=O)N[C@H]1CCCNC1"
value_observed = "0.289 µM"

[[record]]
compound = "NC(=O)Nc1cc(C#Cc2ccnc(F)c2)sc1C(=O)N[C@H]1CCCNC1"
value_observed = "0.041 µM"

[[record]]
compound = "Cn1cc(C#Cc2cc(NC(N)=O)c(C(=O)N[C@H]3CCCCNC3)s2)cn1 [Example 41, trifluoroacetate]"
value_observed = "0.092 µM"

[[record]]
compound = "CC(=O)N1CCC(n2cc(C#Cc3cc(NC(N)=O)c(C(=O)N[C@H]4CCCCNC4)s3)cn2)CC1"
value_observed = "0.437 µM"

[[record]]
compound = "NC(=O)Nc1cc(C#Cc2ccncc2)sc1C(=O)N[C@H]1CCCNC1"
value_observed = "0.408 µM"

[[record]]
compound = "NC(=O)Nc1cc(C#Cc2ccc(C(F)(F)F)nc2)sc1C(=O)N[C@H]1CCCNC1"
value_observed = "0.064 µM"

[[record]]
compound = "NC(=O)Nc1cc(C#Cc2cccc([N+](=O)[O-])c2)sc1C(=O)N[C@H]1CCCNC1"
value_observed = "0.039 µM"

[[record]]
compound = "NC(=O)Nc1cc(C#Cc2ccc([N+](=O)[O-])cc2)sc1C(=O)N[C@H]1CCCNC1"
value_observed = "0.07 µM"

[[record]]
compound = "NC(=O)Nc1cc(CCc2cccc(F)c2)sc1C(=O)N[C@H]1CCCNC1"
value_observed = "1.61 µM"

[[record]]
compound = "NC(=O)Nc1cc(C#Cc2ccccn2)sc1C(=O)N[C@H]1CCCNC1"
value_observed = "0.041 µM"

[[record]]
compound = "CCn1cc(C#Cc2cc(NC(N)=O)c(C(=O)N[C@H]3CCCCNC3)s2)cn1"
value_observed = "0.3 µM"

[[record]]
compound = "Cc1ccc(C#Cc2cc(NC(N)=O)c(C(=O)N[C@H]3CCCNC3)s2)cc1"
value_observed = "0.039 µM"

[[record]]
compound = "COC(=O)c1ccc(C#Cc2cc(NC(N)=O)c(C(=O)N[C@H]3CCCNC3)s2)cc1 [Example 18, trifluoroacetate]"
value_observed = "0.011 µM"

[[record]]
compound = "NC(=O)Nc1cc(C#Cc2ccsc2)sc1C(=O)N[C@H]1CCCCNC1 [Example 48, trifluoroacetate]"
value_observed = "0.067 µM"

[[record]]
compound = "NC(=O)Nc1cc(C#Cc2ccc(F)nc2)sc1C(=O)N[C@H]1CCCNC1"
value_observed = "0.014 µM"

[[record]]
compound = "NC(=O)Nc1cc(CCc2cccc(F)c2)sc1C(=O)N[C@H]1CCCCNC1"
value_observed = "11.5 µM"

[[record]]
compound = "NC(=O)Nc1cc(C#Cc2cccc(F)c2)sc1C(=O)NC1CCNC1 (centres unmarked)"
value_observed = "0.925 µM"

[[record]]
compound = "NC(=O)Nc1cc(C#Cc2cccc(F)c2)sc1C(=O)N[C@H]1CCCNC1"
value_observed = "0.052 µM"


###

- system-name: FLT3-ITD Ba/F3 cells (Homo sapiens, UniProt P36888, cells depend on it, form not given)
- method-summary: Growth inhibitory activity against Ba/F3 cell line
- Type: cell-based
- experimental-conditions: Ba/F3 expressing FLT3-ITD; 72 hours; cell titer glo; read-out: IC50 (uM) FLT3-ITD
Where a name gives a salt, the structure may show the parent alone.
Rule for this label: condition met means GI50 is less than 0.02 µM; condition not met means GI50 is at least 0.02 µM.

[[record]]
compound = "NC(=O)Nc1cc(C#Cc2ccsc2)sc1C(=O)N[C@H]1CCCCNC1 [Example 48, trifluoroacetate]"
group_label = "condition met"

[[record]]
compound = "CS(=O)(=O)N1CCC(n2cc(C#Cc3cc(NC(N)=O)c(C(=O)N[C@H]4CCCCNC4)s3)cn2)CC1 [Example 47, trifluoroacetate]"
group_label = "condition not met"

[[record]]
compound = "NC(=O)Nc1cc(C#Cc2ccc(C(F)(F)F)nc2)sc1C(=O)N[C@H]1CCCNC1"
group_label = "condition met"

[[record]]
compound = "Cn1cc(C#Cc2cc(NC(N)=O)c(C(=O)N[C@H]3CCCCNC3)s2)cn1 [Example 41, trifluoroacetate]"
group_label = "condition met"

[[record]]
compound = "NC(=O)Nc1cc(C#Cc2ccc(C(F)(F)F)cc2)sc1C(=O)N[C@H]1CCCNC1"
group_label = "condition met"

[[record]]
compound = "CS(=O)(=O)N1CCC(n2cc(C#Cc3cc(NC(N)=O)c(C(=O)N[C@H]4CCCNC4)s3)cn2)CC1"
group_label = "condition met"

[[record]]
compound = "NC(=O)Nc1cc(C#Cc2cccc(F)c2)sc1C(=O)NC1CCNC1 (stereo not shown)"
group_label = "condition not met"

[[record]]
compound = "NC(=O)Nc1cc(C#Cc2ccccc2)sc1C(=O)N[C@H]1CCCNC1"
group_label = "condition met"

[[record]]
compound = "NC(=O)Nc1cc(C#Cc2cccc(F)c2)sc1C(=O)N[C@H]1CCCNC1"
group_label = "condition met"

[[record]]
compound = "Cn1cc(CCc2cc(NC(N)=O)c(C(=O)N[C@H]3CCCCNC3)s2)cn1 [Example 52, trifluoroacetate]"
group_label = "condition not met"

[[record]]
compound = "NC(=O)Nc1cc(C#Cc2cccc(F)c2)sc1C(=O)N[C@H]1CCCCNC1"
group_label = "condition not met"

[[record]]
compound = "CC(=O)N1CCC(n2cc(C#Cc3cc(NC(N)=O)c(C(=O)N[C@H]4CCCCNC4)s3)cn2)CC1"
group_label = "condition met"

[[record]]
compound = "N#Cc1ccc(C#Cc2cc(NC(N)=O)c(C(=O)N[C@H]3CCCNC3)s2)cc1"
group_label = "condition met"

[[record]]
compound = "NC(=O)Nc1cc(C#Cc2cn[nH]c2)sc1C(=O)N[C@H]1CCCCNC1 [Example 42, trifluoroacetate]"
group_label = "condition not met"

[[record]]
compound = "NC(=O)Nc1cc(C#Cc2ccccn2)sc1C(=O)N[C@H]1CCCNC1"
group_label = "condition met"

[[record]]
compound = "NC(=O)Nc1cc(C#Cc2cnn(C3CCOCC3)c2)sc1C(=O)N[C@H]1CCCCNC1 [Example 46, trifluoroacetate]"
group_label = "condition met"

